Origin of measurements: patent US9926281B2

# assayed-target: human TACE (Homo sapiens (Human))
# Sequence (P78536 whole entry, looked up, change not shown): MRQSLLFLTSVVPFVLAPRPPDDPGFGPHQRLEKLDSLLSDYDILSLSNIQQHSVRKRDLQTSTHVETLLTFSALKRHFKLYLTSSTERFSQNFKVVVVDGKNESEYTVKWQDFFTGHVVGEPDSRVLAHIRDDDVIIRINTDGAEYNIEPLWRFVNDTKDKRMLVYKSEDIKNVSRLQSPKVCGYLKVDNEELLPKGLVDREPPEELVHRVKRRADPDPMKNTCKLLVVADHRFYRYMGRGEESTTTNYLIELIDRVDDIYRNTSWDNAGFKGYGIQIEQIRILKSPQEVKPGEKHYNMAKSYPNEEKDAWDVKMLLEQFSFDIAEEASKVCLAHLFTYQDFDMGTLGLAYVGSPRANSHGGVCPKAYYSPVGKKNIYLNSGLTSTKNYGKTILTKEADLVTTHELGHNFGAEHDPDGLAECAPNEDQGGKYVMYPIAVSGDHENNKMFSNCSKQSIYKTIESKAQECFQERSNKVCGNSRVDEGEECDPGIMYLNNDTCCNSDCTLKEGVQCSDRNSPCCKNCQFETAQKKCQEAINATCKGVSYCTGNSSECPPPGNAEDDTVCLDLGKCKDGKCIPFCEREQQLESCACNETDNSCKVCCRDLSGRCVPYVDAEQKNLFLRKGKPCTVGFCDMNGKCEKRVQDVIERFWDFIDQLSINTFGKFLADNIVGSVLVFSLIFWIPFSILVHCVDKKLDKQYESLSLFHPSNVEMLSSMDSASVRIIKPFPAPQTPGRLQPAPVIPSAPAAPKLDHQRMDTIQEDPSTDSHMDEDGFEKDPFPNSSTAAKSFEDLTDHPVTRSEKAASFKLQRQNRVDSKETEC
# applied-conditions: read-out: TACE potency IC50
pIC50: −log10 of the molar value.
measurement-kind: pIC50

CC(CC1(C)NC(=O)NC1=O)C(=O)N1CCN(c2cccc(-c3cn[nH]c3)c2)[C@@H](C)C1 (some centres unmarked) [compound 371]
< 5.43
CC(CC1(C2CC2)NC(=O)NC1=O)C(=O)N1CCN(c2cccc(F)c2)[C@@H](C)C1 (some centres unmarked) [compound 190]
< 4.70
C[C@H]1CN(C(=O)CCC2(C3CC3)NC(=O)NC2=O)CCN1c1cccc(-c2cn[nH]c2)c1 (some centres unmarked) [compound 282]
< 4.70
CCC1(CC(C)C(=O)N2CCN(c3cncc(F)c3)[C@@H](C)C2)NC(=O)NC1=O (some centres unmarked) [compound 360]
< 4.70
CC1(CC(CC#N)C(=O)N2CCN(c3cc(Cl)cc(Cl)c3)CC2)NC(=O)NC1=O (centres unmarked) [compound 254]
6.00
Cc1ccc(N2CCN(C(=O)CCC3(C4CC4)NC(=O)NC3=O)C[C@@H]2C)cc1F (some centres unmarked) [compound 299]
< 4.70
Cc1ccc(F)cc1N1CCN(C(=O)CCC2(C3CC3)NC(=O)NC2=O)C[C@@H]1C (some centres unmarked) [compound 148]
< 5.40

With those in mind, consider the next compound.
# compound O=C1NC(=O)C(CCC(=O)N2CCN(c3ccc(F)c(Cl)c3)CC2)(c2cccnc2)N1 (centres unmarked) [compound 91] ; its pIC50 = < 5.40

###

Exercise: for every item that follows, state its recorded pIC50.
# assayed-target: UniProt:P45452
# applied-conditions: read-out: hMMP-13 potency IC50
pIC50: −log10 of the molar value.

Consider the reported pIC50 for these compounds:
Cc1ccc(Cl)cc1N1CCN(C(=O)CCC2(C)NC(=O)NC2=O)CC1 (stereo not shown) [compound 16]
< 4.70
O=C1NC(=O)C(CCC(=O)N2CCN(c3ccc(Cl)c(F)c3)CC2)(c2ccccc2)N1 (stereo not shown) [compound 10]
6.55
CC1(CCC(=O)N2CCN(c3ccccc3)CC2)NC(=O)NC1=O (stereo not shown) [compound 1]
< 4.70

Your task in this section: give pIC50 for each listed record.
1. Cc1c(Cl)cccc1N1CCN(C(=O)CCC2(C)NC(=O)NC2=O)CC1 (stereo not shown) [compound 18]
2. Cc1cccc(N2CCN(C(=O)CCC3(c4ccccc4)NC(=O)NC3=O)CC2)c1C (stereo not shown) [compound 8]
3. O=C1NC(=O)C(CCC(=O)N2CCN(c3ccc4cnccc4c3)CC2)(c2ccccc2)N1 (stereo not shown) [compound 14]
4. Cc1c(Cl)cccc1N1CCN(C(=O)CCC2(c3ccccc3)NC(=O)NC2=O)CC1 (stereo not shown) [compound 21]
5. Cc1cc(Cl)ccc1N1CCN(C(=O)CCC2(c3ccccc3)NC(=O)NC2=O)CC1 (stereo not shown) [compound 13]
6. O=C1NC(=O)C(CCC(=O)N2CCN(c3ccccc3)CC2)(c2ccccc2)N1 (stereo not shown) [compound 4]
7. Cc1ccccc1N1CCN(C(=O)CCC2(c3ccccc3)NC(=O)NC2=O)CC1 (stereo not shown) [compound 7]
8. CC1(CCC(=O)N2CCN(c3ccc(Cl)cc3)CC2)NC(=O)NC1=O (stereo not shown) [compound 2]

Response given:
["< 4.70", "< 4.70", 6.44, "< 4.70", "< 4.70", 5.60, "< 4.70", 5.63]

For each entry beneath this line, provide reported pIC50.
1. O=C1NC(=O)C(CCC(=O)N2CCN(c3ccc4ccccc4c3)CC2)(c2ccccc2)N1 (stereo not shown) [compound 9]
2. O=C1NC(=O)C(CCC(=O)N2CCN(c3cccc(Cl)c3)CC2)(c2ccccc2)N1 (stereo not shown) [compound 6]
3. O=C1NC(=O)C(CCC(=O)N2CCN(c3ccccc3Cl)CC2)(c2ccccc2)N1 (stereo not shown) [compound 20]
4. Cc1cccc(N2CCN(C(=O)CCC3(C)NC(=O)NC3=O)CC2)c1C (stereo not shown) [compound 11]
5. Cc1ccccc1N1CCN(C(=O)CCC2(C)NC(=O)NC2=O)CC1 (stereo not shown) [compound 12]

Response given:
1. 5.83
2. 5.67
3. < 4.70
4. < 4.70
5. < 4.70

###

# assayed-target: UniProt:P78536
# applied-conditions: read-out: TACE potency IC50
measurement-kind: IC50

O=C1NC(=O)C(CCC(=O)N2CCN(c3ccccc3Cl)CC2)(c2ccccc2)N1 (stereo not shown)
> 4 µM

Parameters: items (list). Returns: IC50 for each item.
1. CC(CC1(C)NC(=O)NC1=O)C(=O)N1CCN(c2cccc(F)c2)[C@@H](C)C1 (stereo partly shown)
2. CC(CC1(c2ccccn2)NC(=O)NC1=O)C(=O)N1CCN(c2cccc(Cl)c2)[C@@H](C)C1 (stereo partly shown) [compound 269]
3. C[C@H]1CN(C(=O)CCC2(C3CC3)NC(=O)NC2=O)CCN1c1ccn(C)n1 (stereo partly shown)

Response given:
> 12 µM
0.84 µM
> 20 µM

###

# assayed-target: UniProt Q9UNA0
# applied-conditions: read-out: hADAMTS-5 potency IC50
Exercise: for every item that follows, state its recorded pIC50.
Give bare numbers, as −log10 of the molar value.

C[C@H]1CN(C(=O)CCC2(c3cncnc3)NC(=O)NC2=O)CCN1c1cc(F)cc(F)c1 (stereo partly shown) [compound 332]
7.21
Cc1cc(Cl)c(F)cc1N1CCN(C(=O)CCC2(C)NC(=O)NC2=O)C[C@@H]1C (stereo partly shown) [compound 202]
6.14

Alright, here's another compound for you.
Notebook: CC(CC1(c2ccccn2)NC(=O)NC1=O)C(=O)N1CCN(c2cccc(Cl)c2)[C@@H](C)C1 (stereo partly shown) [compound 446] , pIC50 read as 7.72

###

# assayed-target: rnADAMTS-5 (1-564-6H) (Rattus norvegicus)
measurement-kind: pIC50
One number for each entry, as −log10 of the molar value.

CC(CC1(CN2CCOCC2)NC(=O)NC1=O)C(=O)N1CCN(c2cc(Cl)cc(Cl)c2)CC1 (stereo not drawn)
7.24
CC(CC1(C2CC2)NC(=O)NC1=O)C(=O)N1CCN(c2ccc(Cl)cc2)[C@@H](C)C1 (stereo partly drawn)
8.15
Cc1c(Cl)cccc1N1CCN(C(=O)CCC2(c3ccccc3)NC(=O)NC2=O)CC1 (stereo not drawn)
6.79
Cc1c(Cl)cccc1N1CCN(C(=O)CCC2(C)NC(=O)NC2=O)CC1 (stereo not drawn)
6.03
Cc1ccccc1N1CCN(C(=O)CCC2(c3ccccc3)NC(=O)NC2=O)CC1 (stereo not drawn)
6.57
Cc1cc(N2CCN(C(=O)CCC3(c4ccccc4)NC(=O)NC3=O)CC2)ccc1[N+](=O)[O-] (stereo not drawn)
6.80
O=C1NC(=O)C(CCC(=O)N2CCN(c3ccc(F)c(F)c3)CC2)(C2CC2)N1 (stereo not drawn)
7.04
O=C1NC(=O)C(CCC(=O)N2CCN(c3ccc(F)c(Cl)c3)CC2)(C2CC2)N1 (stereo not drawn)
7.21
Cc1ccc(F)cc1N1CCN(C(=O)CCC2(c3ccccn3)NC(=O)NC2=O)CC1 (stereo not drawn)
7.39
Cc1ccc(C2(CCC(=O)N3CCN(c4cccc(Cl)c4)CC3)NC(=O)NC2=O)cc1 (stereo not drawn)
6.99

// input: 7 compounds below; output: pIC50 for each
1. C[C@H]1CN(C(=O)CCC2(C)NC(=O)NC2=O)CCN1c1cccc(F)c1 (stereo partly drawn)
2. Cc1ccccc1N1CCN(C(=O)CCC2(c3ccc(CN(C)C)cc3)NC(=O)NC2=O)CC1 (stereo not drawn)
3. Cc1cccc(N2CCN(C(=O)CCC3(c4ccccn4)NC(=O)NC3=O)CC2)c1C (stereo not drawn)
4. CC(CC1(C2CC2)NC(=O)NC1=O)C(=O)N1CCN(c2cccc(F)c2)[C@@H](C)C1 (stereo partly drawn)
5. Cc1ccccc1N1CCN(C(=O)CCC2(C3CC3)NC(=O)NC2=O)CC1 (stereo not drawn)
6. CC(CC1(C)NC(=O)NC1=O)C(=O)N1CCN(c2cccc(Cl)c2)[C@@H](C)C1 (stereo partly drawn)
7. O=C1NC(=O)C(CCC(=O)N2CCN(c3ccccc3)CC2)(c2cccnc2)N1 (stereo not drawn)

Response given:
1. 6.55
2. 5.68
3. 6.78
4. 7.82
5. 6.99
6. 7.52
7. 6.70

###

# assayed-target: human ADAMTS-5 (Homo sapiens (Human))
# Sequence (Q9UNA0 262-930): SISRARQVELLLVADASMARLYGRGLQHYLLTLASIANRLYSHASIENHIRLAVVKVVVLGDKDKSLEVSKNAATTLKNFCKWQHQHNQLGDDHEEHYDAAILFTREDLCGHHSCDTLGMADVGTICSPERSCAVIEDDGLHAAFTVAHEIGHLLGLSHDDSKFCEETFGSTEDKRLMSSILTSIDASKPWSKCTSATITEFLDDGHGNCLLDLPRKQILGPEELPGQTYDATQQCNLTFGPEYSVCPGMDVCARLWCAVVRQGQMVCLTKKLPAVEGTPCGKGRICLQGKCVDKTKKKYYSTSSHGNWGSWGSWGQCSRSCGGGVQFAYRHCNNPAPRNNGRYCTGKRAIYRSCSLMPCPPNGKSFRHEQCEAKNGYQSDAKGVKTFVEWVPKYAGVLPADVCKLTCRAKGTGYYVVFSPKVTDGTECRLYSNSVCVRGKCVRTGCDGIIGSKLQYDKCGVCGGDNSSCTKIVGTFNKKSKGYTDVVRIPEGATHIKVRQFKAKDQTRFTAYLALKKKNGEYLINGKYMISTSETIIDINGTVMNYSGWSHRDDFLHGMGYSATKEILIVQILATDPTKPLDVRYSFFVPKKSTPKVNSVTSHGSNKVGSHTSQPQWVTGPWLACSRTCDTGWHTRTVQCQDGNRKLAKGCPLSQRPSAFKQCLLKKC
# applied-conditions: read-out: hADAMTS-5 potency IC50
measurement-kind: pIC50
Answers are plain numbers, as −log10 of the molar value.

Guide cases for pIC50, answers given:
Cc1c(Cl)cc(Cl)cc1N1CCN(C(=O)CCC2(C)NC(=O)NC2=O)CC1 (stereo not shown) [compound 139]
6.64
Cc1ccccc1N1CCN(C(=O)CCC2(c3ccccc3)NC(=O)NC2=O)CC1 (stereo not shown) [compound 7]
6.57
COc1cccc(C2(CCC(=O)N3CCN(c4cccc(Cl)c4)CC3)NC(=O)NC2=O)c1 (stereo not shown) [compound 123]
7.02

--- query ---
pIC50 recorded for this compound, Cc1ccc(C2(CCC(=O)N3CCN(c4cc(Cl)ccc4C)CC3)NC(=O)NC2=O)cc1 (stereo not shown) [compound 77] , is 6.97
